target.system: carboxypeptidase M (CPM) (Homo sapiens)
Sequence (P14384 18-443, species assumed): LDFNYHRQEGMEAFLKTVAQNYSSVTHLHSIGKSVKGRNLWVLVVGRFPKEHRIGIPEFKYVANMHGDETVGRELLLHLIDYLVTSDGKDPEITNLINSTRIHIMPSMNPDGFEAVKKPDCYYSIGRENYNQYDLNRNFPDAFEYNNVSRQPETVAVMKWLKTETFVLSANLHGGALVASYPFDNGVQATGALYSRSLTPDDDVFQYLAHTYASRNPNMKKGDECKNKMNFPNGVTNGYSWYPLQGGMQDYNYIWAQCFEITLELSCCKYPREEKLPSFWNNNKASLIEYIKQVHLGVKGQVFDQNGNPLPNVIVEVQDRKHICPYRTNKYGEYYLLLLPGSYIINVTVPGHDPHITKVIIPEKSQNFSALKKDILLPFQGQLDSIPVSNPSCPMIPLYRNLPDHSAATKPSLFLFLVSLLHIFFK
assay.explanation: Specificity: carboxypeptidase M inhibition
Type: biochemical
run.parameters: Ki CPM, Table 5; NE = no effect

molecule	value.unit	Ki
c1cnc2c(c1)ccc1cccnc12 [1,10-Phenanthroline, 1,10-phenanthroline, reference compound]	µM	394

---

target.system: carboxypeptidase N (hCPN, partially purified from plasma) (Homo sapiens, UniProt P15169)
Sequence (P15169 21-458): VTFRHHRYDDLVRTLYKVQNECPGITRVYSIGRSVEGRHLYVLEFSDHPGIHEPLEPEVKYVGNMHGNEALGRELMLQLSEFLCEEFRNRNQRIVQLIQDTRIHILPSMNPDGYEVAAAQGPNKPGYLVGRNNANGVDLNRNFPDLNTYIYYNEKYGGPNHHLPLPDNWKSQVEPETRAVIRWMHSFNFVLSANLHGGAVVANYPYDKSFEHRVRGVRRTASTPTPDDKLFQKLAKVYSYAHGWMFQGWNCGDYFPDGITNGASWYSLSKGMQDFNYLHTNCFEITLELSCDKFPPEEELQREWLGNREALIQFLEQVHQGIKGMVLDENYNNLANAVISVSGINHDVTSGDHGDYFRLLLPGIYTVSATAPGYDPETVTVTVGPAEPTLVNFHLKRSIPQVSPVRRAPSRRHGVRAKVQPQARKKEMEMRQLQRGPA
Sequence (P22792 22-545 partner): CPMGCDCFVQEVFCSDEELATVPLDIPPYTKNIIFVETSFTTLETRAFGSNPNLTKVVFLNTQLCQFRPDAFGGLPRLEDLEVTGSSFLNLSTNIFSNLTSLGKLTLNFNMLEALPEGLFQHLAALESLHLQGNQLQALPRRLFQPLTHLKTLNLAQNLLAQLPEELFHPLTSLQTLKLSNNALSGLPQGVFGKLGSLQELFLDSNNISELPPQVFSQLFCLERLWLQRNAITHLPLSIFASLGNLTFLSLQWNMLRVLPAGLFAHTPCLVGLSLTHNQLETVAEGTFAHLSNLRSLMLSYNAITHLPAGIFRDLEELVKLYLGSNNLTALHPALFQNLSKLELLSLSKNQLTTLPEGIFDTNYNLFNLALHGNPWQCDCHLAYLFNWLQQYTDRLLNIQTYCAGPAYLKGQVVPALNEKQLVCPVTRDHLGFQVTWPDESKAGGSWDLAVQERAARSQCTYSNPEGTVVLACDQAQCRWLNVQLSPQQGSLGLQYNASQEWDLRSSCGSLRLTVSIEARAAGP
assay.explanation: Specificity: carboxypeptidase N inhibition
run.parameters: read-out: Ki CPN; Table 5; NE = no effect

smiles.code	Ki
CCCCCCCCCCCCNC(=O)[C@@H]1CCCN1C(=O)[C@@H]1CCCN1	> 1 mM
